Parameter: kon. Scope: all listed entries.
STUDY_SYSTEM: T1, human pro-myostatin (human, UniProt O14793 24-375, biotinylated (in the SPR assay))
T1 construct: Disulfide-linked homodimer; also called proGDF8 (human)
METHOD_NOTES: SPR Biacore 8K, biotin-antigen captured
Express it in M⁻¹ s⁻¹; write the number only.

Record request: kon value, item Ab112 (antibody, human IgG4 S228P, kappa, V domains shown) VH: QVQLVQSGAEVKKPGASVKVSCKVSGGTFGIYAIHWVRQAPGKGLEWMGGTIPVFGTAIYAQKFQGRVTMTEDTSTDTAYMELSSLKSEDTAVYYCASLTGIAAAGTHPARGGMDVWGQGTTVTVSS VL: DIQMTQSPSSVSASVGDRVTITCRASPSISSYLAWYQQKPGKAPKLLIYAASRLQSGVPSRFSGSGSGTDFTLTISSLQPEDFANYYCQEYLSFPLTFGGGTKVEIKR
217000

Record request: kon value, item Ab105 (antibody, human IgG4 S228P, kappa, V domains shown) VH: EVQLVESGGGLVQPGGSLRLSCAASGSAFSSYGMSWVRQAPGKGLELVASIGGTGATYYPDSVKGRFTISRDNAKNSLYLQMNSLRAEDTAVYYCARDLLVRFLEWGHYYGMDVWGQGTTVTVSS VL: DIVMTQSPLSLPVTPGEPASISCRSSQSLLHSSGYNFLHWYLQKPGQSPQLLIYAASSRAPGIPDRFSGSGSGTDFTLKISRVEAEDVGVYYCMHGGQGPTFGGGTKVEIKR
4.89e+06

Record request: kon value, item Ab108 (antibody, human IgG4 S228P, kappa, V domains shown) VH: EVQLVESGGGLVQPGGSLRLSCAASGSAFSSYGMSWVRQAPGKGLELVASINSNGGSTYYPDSVKGRFTISRDNAKNSLYLQMNSLRAEDTAVYYCARDLLVGFLQWSHYYGMDVWGQGTTVTVSS VL: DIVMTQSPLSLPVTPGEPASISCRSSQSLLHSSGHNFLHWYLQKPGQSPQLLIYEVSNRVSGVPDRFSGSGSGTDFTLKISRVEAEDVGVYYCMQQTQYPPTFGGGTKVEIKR
5.92e+06
